# system_name: Albumin (Bos taurus)
# method: compounds binding labelled BSA control protein – biochemical, small-molecule microarray, Alexa647 label, 635/667 nm fluorescence, artefact control for SMM control protein annotation, profiling panel (AID 1118);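 note: score merges 667 nm emission intensity and signal-to-noise per printed compound spot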
# condition_info: BSA-A647 binding, fluorescence 635 nm, higher = more signal
quantity: composite z-score
Answers are plain numbers.

Completed entries (count: 4):
Prompt: Can you look up the measured composite z-score of Cc1cc(C)c(C(O)C2C=CC3C(=O)NC(=O)C3N2Nc2ccccn2)c(C)c1 (stereo not given) for me?
Response: 0.63

Prompt: What measured composite z-score goes with `O=c1cccc(-c2ccccc2)o1` ?
Response: 0.66

Prompt: What value of composite z-score has been recorded for this entry: `CCCNC(=O)[C@@]1(C)c2ccccc2C(=O)N(Cc2ccc(OC(F)(F)F)cc2)[C@H]1c1ccc(CO)cc1`
Response: 0.132

Prompt: Find the recorded composite z-score belonging to `C=C[C@H](OC)[C@@H](OC(=O)Nc1ccc(SC)cc1)c1ccc(OCCO)cc1` and report it.
Response: 0.383

Consider the additional compound presented here.
Prompt: composite z-score for `CN(C)CCCC[C@@H]1NC(=O)[C@@H]2C[C@H](C(=O)NCc3ccc(F)cc3)[C@H](c3cccc(OCCO)c3)N2C1=O` ?
Response: -0.202

====

For each of the compounds below, state its z-score.
# method: resazurin metabolic signal in A549 cells – cell-based, resazurin fluorescence, 24 h, PK04 Diversity Set, profiling panel (AID 1171); note: test concentration not given here
# condition_info: A549 viability, higher = more signal, called active from +8 up or from −8 down
Give bare numbers.

Example entries begin here.
Prompt: Tell me the measured z-score of `Cc1c(NC(=O)/C(C#N)=C/C=C/c2ccccc2)c(=O)n(-c2ccccc2)n1C` , please.
Response: -0.2

Prompt: Sample `[N-]=[N+]=NCc1ccccc1C[C@]1(C(=O)NCc2ccccc2)COC(c2ccc(OCCCO)cc2)=N1` — what was its z-score?
Response: -1.42

Prompt: For O=C(NCC(O)CO)[C@@]1(Cc2ccccc2)N=C(c2ccc(OCCCO)cc2)O[C@H]1c1ccccc1 (stereo not given in full) , what is its reported z-score?
Response: 0.564

Prompt: What measured z-score goes with `C=C(C(=O)CC[C@H](OC(=O)c1cccnc1)c1ccccc1OCCO)C(C)C` ?
Response: 0.626

New cases:
Prompt: Reported z-score for [N-]=[N+]=NCc1ccccc1C[C@]1(C(=O)NCC(O)CO)COC(c2ccc(OCCCO)cc2)=N1 (stereo not given in full) : what is it?
Response: 2.56

====

# method: blockers of DNA damage checkpoint Chk1 activation – imaging, HeLa, hydroxyurea, phospho-Chk1 antibody, percent positive cells, primary screen (AID 1186)
# condition_info: hydroxyurea-induced phospho-Chk1 immunofluorescence imaging, higher = more signal
Hi there, I'd appreciate the recorded z-score for every entry that follows.
Give bare numbers.

Recorded z-score, per entry:
Prompt: Give its z-score value. Item: `C#C[C@H](O[Si](C#CCCCCCC)(C(C)C)C(C)C)c1ccccc1`
Response: -0.0616

Prompt: Entry `Cc1ccc(S[C@]2(C(=O)NCC(F)(F)F)CC(=O)N(C3Cc4ccccc4C3)[C@@H]2c2ccc(CO)cc2I)cc1` : reported z-score = ?
Response: 0.0501

Prompt: Name the recorded z-score for `COC(=O)[C@@]1(Cc2ccc(F)cc2)[C@H]2c3cc(C(=O)N(C)C)n(CCc4c[nH]c5ccc(OC)cc45)c3C[C@H]2CN1C(=O)c1ccccc1` .
Response: 0.737

Prompt: What value of z-score has been reported for the following compound? `COCCOC(=O)N1C(=O)[C@@]2(c3cc(C#Cc4ccc(OC)cc4)ccc31)[C@H](c1ccc(OCCO)cc1)N1[C@H](c3ccccc3)[C@H](c3ccccc3)OC(=O)[C@H]1[C@@H]2C(=O)N1CCc2cc(OC)c(OC)cc2C1`
Response: -0.329

Prompt: Can you look up the measured z-score of CC(=O)n1cc(C(O)C2C=CC3C(=O)N(c4ccccc4)C(=O)C3N2Nc2ccc(C#N)cc2)c2ccccc21 (stereo unspecified) for me?
Response: -0.199

Here is the next item to consider.
Prompt: Record request: z-score value, item `CC(C)(C)OC(=O)CC[C@@]1(C(=O)N2CCOCC2)N=C(c2ccc(OCCCO)cc2)O[C@@H]1c1ccccc1N=[N+]=[N-]`
Response: -0.496
